Where do the numbers come from? From ChEMBL document CHEMBL4390660.

Assign IC50 to each entry below.
Assay: Cytotoxicity against human A875 cells assessed as growth inhibition after 72 hrs by MTT assay
Format: functional, cell-based
Conditions: A875, 72 h
Give bare numbers, in µM.

Worked examples, 3 compounds total:
>>> measured_result("CS(=O)(=O)CCNC(=O)c1cc2c([nH]c3ccccc32)c(C(=O)c2c[nH]c3ccccc23)n1")
8.43
>>> measured_result("O=C(NCCc1c[nH]c2ccccc12)c1cc2c([nH]c3ccccc32)c(C(=O)c2c[nH]c3ccccc23)n1")
50.4
>>> measured_result("O=C(NCc1cccnc1)c1cc2c([nH]c3ccccc32)c(C(=O)c2c[nH]c3ccccc23)n1")
25.2

Can you give me IC50 for all of these, one by one?
1. O=C(NCc1ccccc1)c1cc2c([nH]c3ccccc32)c(C(=O)c2c[nH]c3ccccc23)n1
2. COC(=O)C(CO)NC(=O)c1cc2c([nH]c3ccccc32)c(C(=O)c2c[nH]c3ccccc23)n1 (stereo not given)
3. COc1cc(CNC(=O)c2cc3c([nH]c4ccccc43)c(C(=O)c3c[nH]c4ccccc34)n2)ccc1O
4. O=c1[nH]cc(F)c(=O)[nH]1
5. COc1ccc(NC(=O)c2cc3c([nH]c4ccccc43)c(C(=O)c3c[nH]c4ccccc34)n2)cc1

1. 56.4
2. 10.5
3. 8.47
4. 62.1
5. 65.4
